- test-protocol: NCI Yeast Anticancer Drug Screen. Data for the mec2-1 strain (AID 157)
- condition-summary: S. cerevisiae mec2-1 strain, at 50.0 µM, hits give high values
This is part of a sample that, as a whole, favours compounds with a hit. Of some 79,000 tested, about 15% had one in any assay.
growth inhibition listing for selected molecules.
Give the value in % but do not write % after it.

* Oc1cccc2c1-c1ccccc1C2 | 98.9
* Nc1ccc2c(ccc3ccc4ccccc4c32)c1 | 96.8
* Cc1cccc2c1Oc1cc(Cl)ccc1C2NC(=O)CCN1CCCCC1 (stereo not drawn) | 25.9
* O=c1[nH]c(SCc2c(Cl)c(Cl)c(Cl)c(Cl)c2Cl)nc(=S)[nH]1 | 38.8
* Cc1c(-c2ccccc2)ccnc1/C=N/NC(N)=S | 79
* CCCCCCC(CCCCCCCCCCC(=O)OCC(CC)CC)OC(=O)CC (stereo not drawn) | 7.9
* CC[N+](C)(C)c1ccccc1 | 26.7
* CC(=O)OC1CCC2(C)C(CCC3C4CCC(OC(C)=O)C4(C)CCC32)O1 (stereo not drawn) | 15.1
* CCCCCCCCCCCCCCCCCC(=O)OC(Cc1ccccc1)C(=O)O (stereo not drawn) | 18
* O=C1C(Cl)=C(N2CCN(C3=C(Cl)C(=O)c4ccccc4C3=O)CC2)C(=O)c2ccccc21 | 87.8

Req: Looking for the measured growth inhibition of `CC(C)OC(=S)SSC(=S)OC(C)C` , can you help?
Resp: 99.5
